These measurements were taken from patent US9828339B2.

Each entry below carries its recorded Ki.
Biological target: human muscarinic M3 receptor (Homo sapiens (Human), UniProt P20309)
Sequence (P20309 whole entry): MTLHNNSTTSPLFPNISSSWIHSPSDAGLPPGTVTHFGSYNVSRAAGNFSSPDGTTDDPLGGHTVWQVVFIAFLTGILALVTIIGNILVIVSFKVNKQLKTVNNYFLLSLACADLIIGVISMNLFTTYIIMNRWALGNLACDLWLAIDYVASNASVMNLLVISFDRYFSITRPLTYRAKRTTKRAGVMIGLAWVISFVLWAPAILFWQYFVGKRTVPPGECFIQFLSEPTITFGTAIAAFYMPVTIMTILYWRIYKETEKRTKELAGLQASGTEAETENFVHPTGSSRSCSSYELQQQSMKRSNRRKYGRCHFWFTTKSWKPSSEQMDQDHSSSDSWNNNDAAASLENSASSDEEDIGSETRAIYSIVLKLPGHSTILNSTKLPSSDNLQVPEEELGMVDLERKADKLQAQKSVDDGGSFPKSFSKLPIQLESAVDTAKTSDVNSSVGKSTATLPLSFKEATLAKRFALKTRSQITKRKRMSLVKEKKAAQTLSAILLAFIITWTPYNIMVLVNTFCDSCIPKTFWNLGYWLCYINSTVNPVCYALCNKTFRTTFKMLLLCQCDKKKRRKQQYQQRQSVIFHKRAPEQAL
Assay: Antagonism assay on human muscarinic M3 receptor (carbachol-induced intracellular calcium, FLIPR Calcium 5, transfected Cos-7 cells)
Assay type: cell-based
Details: functional inhibitory constant; carbachol-induced intracellular calcium in Cos-7 cells transfected with human M3 receptor
The answer is to be given in nM; state only the numeric part.

INSERT INTO results (molecule, target_entity, measured_metric, numeric_readout) VALUES
  ('CN1CC[C@H](COC(=O)Nc2ccccc2-c2cccc(F)c2)C1 [Example 116]', 'human muscarinic M3 receptor (Homo sapiens (Human), UniProt P20309)', 'Ki', 1.21),
  ('CN1CC[C@@H](COC(=O)Nc2ccccc2-c2cc(Cl)cc(Cl)c2)C1 [Example 131]', 'human muscarinic M3 receptor (Homo sapiens (Human), UniProt P20309)', 'Ki', 1.86),
  ('CN1CC[C@H](COC(=O)Nc2ccc(F)cc2-c2ccc(Cl)c(Cl)c2)C1 [Example 128]', 'human muscarinic M3 receptor (Homo sapiens (Human), UniProt P20309)', 'Ki', 1.2);

Consider CN1CCC[C@H]1COC(=O)Nc1ccccc1-c1cc(Cl)ccc1F [Example 190] . Its measured Ki is 0.95

* * *

Biological target: human muscarinic M3 receptor (Homo sapiens (Human))
Assay: Binding assay on human muscarinic M3 receptor ([3H]-methyl scopolamine displacement)
Conditions: membranes overexpressing human M3 receptor, Ki from IC50 by Cheng-Prusoff, read-out: Binding Affinity to M3 Receptor, Ki
pKi: −log10 of the molar value.
Response key: YES means pKi >= 7; NO means pKi < 7.

INSERT INTO measurements (compound, label_value) VALUES
  ('CN1CCCC1CCOC(=O)Nc1ccccc1-c1cc(Cl)ccc1F (stereo not shown)', 'YES'),
  ('CN1CCCC1CCOC(=O)Nc1ccc(O)cc1-c1cc(F)cc(F)c1 (stereo not shown)', 'NO'),
  ('CN1CC[C@@H](COC(=O)Nc2ccccc2-c2cc(Cl)cc(Cl)c2)C1', 'YES');

Prompt: Is it the case that CN1CCCC1CCOC(=O)Nc1ccccc1-c1ccccc1 (stereo not shown) has pKi reaching or exceeding 7?
Completion: YES

Prompt: Can CN1CC[C@@H](COC(=O)Nc2ccc(F)cc2-c2ccc(F)cc2)C1 be said to have pKi at or above 7?
Completion: YES

Prompt: Is reported pKi greater than or equal to 7 here: CN(C)c1ccc(-c2ccccc2NC(=O)OCCC2CCCN2C)cc1 (stereo not shown)
Completion: NO
